# Target Desc: Metabotropic glutamate receptor 5 (Rattus norvegicus)
# Protocol Description: Negative allosteric modulation of rat mGlu5 receptor expressed in HEK293A cells assessed as inhibition of glutamate-induced calcium mobilization at 30 uM preincubated for 140 seconds prior to glutamate-stimulation measured after 60 seconds relative to glutamate
# Type: functional, cell-based
# Setup Conditions: HEK293-A
# binarize %max: threshold 2% inclusive, high side yes (1), low side no (0)

{"Smiles Code": "N#Cc1cc(Oc2cncnc2)cc(C(=O)Nc2ccc(F)cn2)c1", "Classification": "no (0)"}
{"Smiles Code": "Cc1csc(NC(=O)c2cc(Oc3cncnc3)cc(C(F)(F)F)c2)n1", "Classification": "no (0)"}
{"Smiles Code": "Cc1cccc(NC(=O)c2cc(Cl)cc(Oc3cnc(C)nc3)c2)n1", "Classification": "no (0)"}
{"Smiles Code": "Cc1cccc(NC(=O)c2cc(Cl)cc(Oc3cncc(F)c3)c2)n1", "Classification": "no (0)"}
{"Smiles Code": "N#Cc1cncc(Oc2cc(Cl)cc(C(=O)Nc3ccc(F)cn3)c2)c1", "Classification": "no (0)"}
{"Smiles Code": "Cc1cccc(NC(=O)c2cccc(Oc3cccnc3)c2)c1", "Classification": "no (0)"}
{"Smiles Code": "Nc1cc(NC(=O)c2cccc(Cl)c2)cc(Oc2cccnc2)c1", "Classification": "no (0)"}
{"Smiles Code": "O=C(Nc1ccc(F)cn1)c1cc(Oc2cncnc2)cc(C(F)(F)F)c1", "Classification": "yes (1)"}
{"Smiles Code": "Cc1cccc(NC(=O)c2cc(Cl)cc(Oc3cncc(C#N)c3)c2)n1", "Classification": "no (0)"}
{"Smiles Code": "O=C(Nc1cccc(Cl)c1)c1cccc(Oc2cccnc2)c1", "Classification": "no (0)"}
{"Smiles Code": "O=C(Nc1ccc(F)cn1)c1cc(Cl)cc(Oc2cncc(F)c2)c1", "Classification": "no (0)"}
{"Smiles Code": "Cc1ncc(Oc2cc(Cl)cc(C(=O)Nc3ccc(F)cn3)c2)cn1", "Classification": "yes (1)"}

----------
# Target Desc: L-type calcium channel, benzothiazepine binding site (Rattus norvegicus, UniProt P22002+P27732+Q02485)
# Protocol Description: Displacement of [3H]-Diltiazem from L-Type calcium channel benzothiazepine binding site in rat brain at 10 uM relative to control
# Assay type: tissue-based
# Setup Conditions: probe [3H]-Diltiazem

{"Smiles Code": "Cc1csc(NC(=O)c2cc(F)cc(Oc3cncnc3)c2)n1", "inhibition at 10 µM": "> 35%"}

----------
# Target Desc: Metabotropic glutamate receptor 5 (Rattus norvegicus, UniProt P31424)
# Sequence (P31424 whole entry): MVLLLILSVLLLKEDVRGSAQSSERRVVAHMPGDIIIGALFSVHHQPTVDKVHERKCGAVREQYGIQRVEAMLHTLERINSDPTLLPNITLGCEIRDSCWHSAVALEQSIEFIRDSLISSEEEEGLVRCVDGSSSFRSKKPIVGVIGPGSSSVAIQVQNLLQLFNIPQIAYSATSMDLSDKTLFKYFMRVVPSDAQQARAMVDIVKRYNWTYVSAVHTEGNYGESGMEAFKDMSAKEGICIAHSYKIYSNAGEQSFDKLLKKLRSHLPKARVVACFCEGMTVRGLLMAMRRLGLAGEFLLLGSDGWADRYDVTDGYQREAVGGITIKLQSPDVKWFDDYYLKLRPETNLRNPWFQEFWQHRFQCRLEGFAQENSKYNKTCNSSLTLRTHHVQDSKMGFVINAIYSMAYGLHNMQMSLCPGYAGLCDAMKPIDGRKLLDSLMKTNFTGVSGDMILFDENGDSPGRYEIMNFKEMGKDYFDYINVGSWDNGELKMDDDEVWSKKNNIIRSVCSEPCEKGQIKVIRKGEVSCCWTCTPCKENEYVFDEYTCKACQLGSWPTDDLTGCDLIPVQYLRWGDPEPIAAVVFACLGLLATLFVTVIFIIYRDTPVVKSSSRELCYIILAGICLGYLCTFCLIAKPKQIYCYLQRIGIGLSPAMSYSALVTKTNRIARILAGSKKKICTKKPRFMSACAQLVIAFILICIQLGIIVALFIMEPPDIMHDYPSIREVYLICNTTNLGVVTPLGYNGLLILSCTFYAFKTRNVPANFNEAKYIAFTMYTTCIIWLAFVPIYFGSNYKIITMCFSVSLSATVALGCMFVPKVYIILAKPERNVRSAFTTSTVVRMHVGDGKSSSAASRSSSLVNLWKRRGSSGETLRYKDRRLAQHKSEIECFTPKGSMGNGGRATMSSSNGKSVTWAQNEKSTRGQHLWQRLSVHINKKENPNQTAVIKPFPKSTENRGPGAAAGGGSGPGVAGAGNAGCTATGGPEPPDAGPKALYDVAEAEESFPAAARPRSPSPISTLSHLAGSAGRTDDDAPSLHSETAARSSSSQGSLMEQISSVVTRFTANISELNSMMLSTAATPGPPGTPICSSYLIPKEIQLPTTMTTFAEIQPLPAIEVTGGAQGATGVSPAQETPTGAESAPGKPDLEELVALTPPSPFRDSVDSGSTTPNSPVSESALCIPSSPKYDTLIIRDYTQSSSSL
# Protocol Description: Negative allosteric modulation of rat mGlu5 receptor expressed in HEK293A cells assessed as inhibition of glutamate-induced calcium mobilization preincubated for 140 seconds prior to glutamate-stimulation measured after 60 seconds
Measured Endpoint: log10(IC50) (log10 of the value in nM)

{"Smiles Code": "Cc1csc(NC(=O)c2cc(Oc3cncnc3)cc(C(F)(F)F)c2)n1", "Target Desc": "Metabotropic glutamate receptor 5 (Rattus norvegicus, UniProt P31424)", "log10(IC50)": 2.45}
{"Smiles Code": "Cc1cc(NC(=O)c2cc(Cl)cc(Oc3cncnc3)c2)ncc1F", "Target Desc": "Metabotropic glutamate receptor 5 (Rattus norvegicus, UniProt P31424)", "log10(IC50)": 3.51}
{"Smiles Code": "Cc1nc(NC(=O)c2cc(Cl)cc(Oc3cncnc3)c2)ccc1F", "Target Desc": "Metabotropic glutamate receptor 5 (Rattus norvegicus, UniProt P31424)", "log10(IC50)": 1.70}
{"Smiles Code": "COc1cccc(NC(=O)c2cc(F)cc(Oc3cncnc3)c2)n1", "Target Desc": "Metabotropic glutamate receptor 5 (Rattus norvegicus, UniProt P31424)", "log10(IC50)": 2.82}
{"Smiles Code": "Nc1cc(NC(=O)c2cccc(Cl)c2)cc(Oc2cccnc2)c1", "Target Desc": "Metabotropic glutamate receptor 5 (Rattus norvegicus, UniProt P31424)", "log10(IC50)": 2.45}
{"Smiles Code": "N#Cc1cncc(Oc2cc(Cl)cc(C(=O)Nc3ccc(F)cn3)c2)c1", "Target Desc": "Metabotropic glutamate receptor 5 (Rattus norvegicus, UniProt P31424)", "log10(IC50)": 1.43}

----------
Recorded pIC50, one value per entry.
# Target Desc: Metabotropic glutamate receptor 5 (Rattus norvegicus, UniProt P31424)
# Protocol Description: Negative allosteric modulation of rat mGlu5 receptor expressed in HEK293A cells assessed as inhibition of glutamate-induced calcium mobilization preincubated for 140 seconds prior to glutamate-stimulation measured after 60 seconds
pIC50: −log10 of the molar value.

{"Smiles Code": "O=C(Nc1nccs1)c1cc(F)cc(Oc2cncnc2)c1", "pIC50": 5.75}
{"Smiles Code": "Cc1csc(NC(=O)c2cccc(Oc3cccnc3)c2)n1", "pIC50": 6.11}
{"Smiles Code": "N#Cc1cc(Oc2cncnc2)cc(C(=O)Nc2ccc(F)cn2)c1", "pIC50": 6.50}
{"Smiles Code": "O=C(Nc1nc(C(F)F)cs1)c1cc(Cl)cc(Oc2cncnc2)c1", "pIC50": 6.51}
{"Smiles Code": "O=C(Nc1ccc(Cl)cn1)c1cc(Cl)cc(Oc2cncnc2)c1", "pIC50": 6.99}
{"Smiles Code": "O=C(Nc1cccc(Cl)c1)c1cccc(Oc2cccnc2)c1", "pIC50": 5.71}
{"Smiles Code": "Cc1cccc(NC(=O)c2cc(Cl)cc(Oc3cnc(C)nc3)c2)n1", "pIC50": 7.02}
{"Smiles Code": "O=C(Nc1ccc(F)cn1)c1cc(Cl)cc(Oc2cncc(F)c2)c1", "pIC50": 7.60}
{"Smiles Code": "Cc1cccc(NC(=O)c2cc(Cl)cc(Oc3cncc(F)c3)c2)n1", "pIC50": 8.12}
{"Smiles Code": "Cc1ncc(Oc2cc(Cl)cc(C(=O)Nc3ccc(F)cn3)c2)cn1", "pIC50": 5.35}
{"Smiles Code": "Cc1cc(Oc2cncnc2)cc(C(=O)Nc2ccc(F)cn2)c1", "pIC50": 7.72}

----------
# Tested on: Brain
# Protocol Description: Fraction unbound in mouse brain homogenates by equilibrium dialysis technique
# Assay type: ADME, tissue-based
# Setup Conditions: brain homogenate

{"Smiles Code": "Cc1cccc(NC(=O)c2cc(Cl)cc(Oc3cncc(F)c3)c2)n1", "Fu": 0.003}
{"Smiles Code": "Cc1cccc(NC(=O)c2cc(Cl)cc(Oc3cncnc3)c2)n1", "Fu": 0.052}
{"Smiles Code": "Cc1csc(NC(=O)c2cc(Cl)cc(Oc3cncnc3)c2)n1", "Fu": 0.025}
{"Smiles Code": "O=C(Nc1cccc(F)n1)c1cc(Cl)cc(Oc2cncnc2)c1", "Fu": 0.057}
{"Smiles Code": "Cc1csc(NC(=O)c2cc(F)cc(Oc3cncnc3)c2)n1", "Fu": 0.082}
{"Smiles Code": "O=C(Nc1cccc(Cl)n1)c1cc(Cl)cc(Oc2cncnc2)c1", "Fu": 0.019}
{"Smiles Code": "N#Cc1cncc(Oc2cc(Cl)cc(C(=O)Nc3ccc(F)cn3)c2)c1", "Fu": 0.016}
{"Smiles Code": "O=C(Nc1ccc(F)cn1)c1cc(Cl)cc(Oc2cncc(F)c2)c1", "Fu": 0.007}
{"Smiles Code": "O=C(Nc1ccc(F)cn1)c1cc(Cl)cc(Oc2cncnc2)c1", "Fu": 0.08}

----------
Measured IC50 (Cytochrome P450 3A4 (Homo sapiens))
Measured Endpoint: IC50 (nM)

{"Smiles Code": "Cc1csc(NC(=O)c2cc(Cl)cc(Oc3cncnc3)c2)n1", "Target Desc": "Cytochrome P450 3A4 (Homo sapiens)", "Assay Result": 2200}
{"Smiles Code": "O=C(Nc1cccc(Cl)n1)c1cc(Cl)cc(Oc2cncnc2)c1", "Target Desc": "Cytochrome P450 3A4 (Homo sapiens)", "Assay Result": 1900}
{"Smiles Code": "N#Cc1cncc(Oc2cc(Cl)cc(C(=O)Nc3ccc(F)cn3)c2)c1", "Target Desc": "Cytochrome P450 3A4 (Homo sapiens)", "Assay Result": 1700}

----------
# Target Desc: Metabotropic glutamate receptor 5 (Rattus norvegicus, UniProt P31424)
# Protocol Description: Negative allosteric modulation of rat mGlu5 receptor expressed in HEK293A cells assessed as inhibition of glutamate-induced calcium mobilization preincubated for 140 seconds prior to glutamate-stimulation measured after 60 seconds
pIC50: −log10 of the molar value.
Measured Endpoint: pIC50

{"Smiles Code": "CCc1ccnc(NC(=O)c2cc(Cl)cc(Oc3cncnc3)c2)c1", "Assay Result": 5.35}
{"Smiles Code": "Cc1cccc(NC(=O)c2cc(Cl)cc(Oc3cncc(C#N)c3)c2)n1", "Assay Result": 8.00}
{"Smiles Code": "O=C(Nc1ccc(F)cn1)c1cc(Oc2cncnc2)cc(C(F)(F)F)c1", "Assay Result": 5.26}
{"Smiles Code": "O=C(Nc1ccc(F)c(C(F)F)n1)c1cc(Cl)cc(Oc2cncnc2)c1", "Assay Result": 6.30}
{"Smiles Code": "Cc1cccc(NC(=O)c2cccc(Oc3cccnc3)c2)c1", "Assay Result": 5.66}
{"Smiles Code": "Cc1csc(NC(=O)c2cccc(Oc3cncnc3)c2)n1", "Assay Result": 6.69}
{"Smiles Code": "Cc1nc(NC(=O)c2cc(F)cc(Oc3cncnc3)c2)sc1F", "Assay Result": 7.27}
{"Smiles Code": "O=C(Nc1ccc(F)cn1)c1cccc(Oc2cccnc2)c1", "Assay Result": 5.42}
